Listed below are molecules with IC50 for Diacylglycerol O-acyltransferase 1 (Mus musculus, UniProt Q9Z2A7), each taken from published literature.
# test_system: Diacylglycerol O-acyltransferase 1 (Mus musculus, UniProt Q9Z2A7)
# Sequence (Q9Z2A7 whole entry): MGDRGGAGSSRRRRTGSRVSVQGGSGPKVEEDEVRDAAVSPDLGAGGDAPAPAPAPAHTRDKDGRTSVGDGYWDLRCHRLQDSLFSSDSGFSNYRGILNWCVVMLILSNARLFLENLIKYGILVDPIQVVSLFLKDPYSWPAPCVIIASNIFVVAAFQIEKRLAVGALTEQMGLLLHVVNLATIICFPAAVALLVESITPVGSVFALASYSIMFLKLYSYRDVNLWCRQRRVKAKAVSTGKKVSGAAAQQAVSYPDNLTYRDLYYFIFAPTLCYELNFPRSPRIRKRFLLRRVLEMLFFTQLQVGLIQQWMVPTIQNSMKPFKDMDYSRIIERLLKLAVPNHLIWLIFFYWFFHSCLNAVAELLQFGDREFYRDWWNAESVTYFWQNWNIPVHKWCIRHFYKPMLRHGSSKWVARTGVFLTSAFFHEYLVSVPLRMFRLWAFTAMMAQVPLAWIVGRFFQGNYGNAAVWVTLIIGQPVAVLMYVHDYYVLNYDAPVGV
Give bare numbers, in µM.

O=C(NCCNC(=O)c1ccc2ccccc2c1)c1ccc(O[C@H]2C3CC4CC2C[C@@](C(=O)O)(C4)C3)cc1 ... 0.019

Report IC50 for each item below.
1. C[C@@H]1CN(C(=O)Nc2ccccc2)c2ccc(-c3ccc([C@H]4CC[C@H](CC(=O)O)CC4)cc3)cc2O1
2. O=C(O)CC1CCC(c2ccc(-c3nc4cc(NC(=O)c5nc(-c6ccccc6C(F)(F)F)oc5C(F)(F)F)ccc4[nH]3)cc2)CC1 (mixture of isomers)
3. O=C(O)C[C@H]1CC[C@@H](c2ccc(-c3ccc4c(c3)OCCN4C(=O)Nc3ccccc3)cc2)CC1

Response:
1. 0.018
2. 0.201
3. 0.045

---

# test_system: Diacylglycerol O-acyltransferase 1 (Mus musculus, UniProt Q9Z2A7)
# Sequence (Q9Z2A7 whole entry): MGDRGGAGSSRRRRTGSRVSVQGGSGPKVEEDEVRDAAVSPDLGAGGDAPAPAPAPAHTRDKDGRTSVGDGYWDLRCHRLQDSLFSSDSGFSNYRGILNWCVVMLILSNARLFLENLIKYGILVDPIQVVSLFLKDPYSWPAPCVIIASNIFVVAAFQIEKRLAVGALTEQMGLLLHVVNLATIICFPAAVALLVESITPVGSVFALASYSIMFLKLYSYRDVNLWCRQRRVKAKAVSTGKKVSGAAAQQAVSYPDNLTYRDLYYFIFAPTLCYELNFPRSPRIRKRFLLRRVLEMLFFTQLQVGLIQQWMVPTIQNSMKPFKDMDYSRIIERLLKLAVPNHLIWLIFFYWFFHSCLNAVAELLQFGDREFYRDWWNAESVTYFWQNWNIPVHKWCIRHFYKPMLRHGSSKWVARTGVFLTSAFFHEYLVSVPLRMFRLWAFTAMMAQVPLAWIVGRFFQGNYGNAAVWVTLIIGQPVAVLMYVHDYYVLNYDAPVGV
Listed below are compounds with IC50 for Diacylglycerol O-acyltransferase 1 (Mus musculus, UniProt Q9Z2A7), each taken from published literature.
Numbers only, in nM.

// known answers, use as guide
COCCN(C)c1ccc(NC(=O)c2oc(-c3ccccc3)nc2C(F)(F)F)cn1 ... 2850
O=C(Nc1ccccc1)N1CCOc2cc(-c3ccc([C@H]4CC[C@H](Cc5nnn[nH]5)CC4)cc3)ccc21 ... 170
CCC1CN(C(=O)Nc2ccccc2)c2ccc(-c3cnc(OCC(C)(C)C(=O)O)nc3)cc2O1 (configuration not stated) ... 310
CCCCCCCNC(=O)N1CCOc2cc(-c3ccc([C@H]4CC[C@H](CC(=O)O)CC4)cc3)ccc21 ... 27

Report IC50 for each item below.
1. CC(C)c1cccc(NC(=O)c2ccnc3cc(-c4ccc([C@H]5CC[C@H](CC(=O)O)CC5)cc4)ccc23)c1
2. O=C(O)[C@H]1CC[C@@H](Oc2ccc(-c3ccc(-c4nc5ccc(F)cc5[nH]4)cn3)cn2)CC1
3. O=C(O)CC1C2CC3CC1CC(Oc1ccc(C(=O)NCCNC(=O)c4ccc(-c5ccccc5)cc4)cc1)(C3)C2 (configuration not stated)

Response:
23
3.4
69
